Tested on: L. donovani intracellular amastigotes
assay summary: Intracellular L. donovani amastigote assay in THP-1 cells (image-based)
Assay type: cell-based, Leishmania donovani
condition notes: THP-1 CC50 / amastigotes IC50
parameter measured: Selectivity Index (SI)

Here are 5 compounds together with their reported answers.
compound: CC(C)C1CC(=O)Oc2cc(O)c3c(=O)cc(-c4ccc(O)c(O)c4)oc3c21 (centres unmarked)
Selectivity Index (SI): 6.1

compound: OC1C=C2CCN3Cc4cc5c(cc4C(C1O)C23)OCO5 (centres unmarked)
Selectivity Index (SI): >28.7

compound: O[C@H]1[C@H]2c3cc4c(cc3CN3CCC(=C[C@@H]1O)[C@H]23)OCO4
Selectivity Index (SI): >19.0

compound: COC1C=COC2(C)Oc3c(C)c(OC(=O)c4ccccc4)c4c(c3C2=O)C(=O)C(N2CC(C)OC(C)C2)=C(NC(=O)C(C)=CC=CC(C)C(O)C(C)C(O)C(C)C(OC(C)=O)C1C)C4=O (centres unmarked)
Selectivity Index (SI): 5.9

compound: O=C1C[C@H](c2cccnc2)c2c(cc(O)c3c(=O)c(-c4ccc(Cl)cc4)coc23)O1
Selectivity Index (SI): >21.1

[Q] Param readout= Selectivity Index (SI); system= L. donovani intracellular amastigotes; entry= COc1ccc([C@H]2CC(=O)Oc3ccc4c(c32)O/C(=C\c2cc(OC)c(OC)cc2OC)C4=O)cc1O ; returns value.
[A] >9.8

[Q] Param readout= Selectivity Index (SI); system= L. donovani intracellular amastigotes; entry= CCCCOc1ccc(C(=O)Oc2c(C)c3c4c5c2C(=O)C(=C(N2CCCCC2)C5=O)NC(=O)C(C)=CC=CC(C)C(O)C(C)C(O)C(C)C(OC(C)=O)C(C)C(OC)C=COC(C)(O3)C4=O)cc1 (centres unmarked) ; returns value.
[A] >15.0

[Q] Param readout= Selectivity Index (SI); system= L. donovani intracellular amastigotes; entry= COc1cc(C=C2Oc3c(ccc4c3C(c3ccnn3C(C)C)CC(=O)O4)C2=O)cc(OC)c1OC (centres unmarked) ; returns value.
[A] 12.4
